# Assay text: Phase I clinical trial, pharmacokinetics of loxoprofen sodium eye drops
# Recorded conditions: human, in vivo, topical or ocular, 0.1 mg, multiple administration (four times a day), 0.1 mg, read-out: Average AUC0-t
Quantity name: AUC(0-t) (ng·h/mL)
Record the value in ng·h/mL, omitting the unit from your answer.

Request: Report AUC(0-t) for CC(C(=O)O)c1ccc(CC2CCCC2=O)cc1 (stereo not shown) [loxoprofen]
Result: 2.08

* * *

# Assay text: Phase I clinical trial, pharmacokinetics of loxoprofen sodium eye drops
# Recorded conditions: human, in vivo, topical or ocular, 0.2 mg, multiple administration (four times a day), 0.2 mg, read-out: Average AUC0-t
Quantity name: AUC(0-t) (ng·h/mL)
Record the value in ng·h/mL, omitting the unit from your answer.

Request: Report AUC(0-t) for CC(C(=O)O)c1ccc(CC2CCCC2=O)cc1 (stereo not shown)
Result: 8.33

* * *

# Assay text: Phase I clinical trial, pharmacokinetics of loxoprofen sodium eye drops
# Recorded conditions: human, in vivo, topical or ocular, multiple administration (four times a day), 0.05 mg
Quantity name: Tmax (min)
Record the value in min, omitting the unit from your answer.

Request: Report Tmax for CC(C(=O)O)c1ccc(CC2CCCC2=O)cc1 (stereo not shown)
Result: 12

* * *

# Assay text: Phase I clinical trial, pharmacokinetics of loxoprofen sodium eye drops
# Recorded conditions: human, in vivo, topical or ocular, multiple administration (four times a day), 0.2 mg
Quantity name: Tmax (min)
Record the value in min, omitting the unit from your answer.

Request: Report Tmax for CC(C(=O)O)c1ccc(CC2CCCC2=O)cc1 (stereo not shown)
Result: 12

* * *

# Assay text: Phase I clinical trial, pharmacokinetics of loxoprofen sodium eye drops
# Recorded conditions: human, in vivo, topical or ocular, 0.1 mg, single administration, 0.1 mg, read-out: Average AUC0-t
Quantity name: AUC(0-t) (ng·h/mL)
Record the value in ng·h/mL, omitting the unit from your answer.

Request: Report AUC(0-t) for CC(C(=O)O)c1ccc(CC2CCCC2=O)cc1 (stereo not shown)
Result: 1.71

* * *

# Assay text: Phase I clinical trial, pharmacokinetics of loxoprofen sodium eye drops
# Recorded conditions: human, in vivo, topical or ocular, multiple administration (four times a day), 0.1 mg
Quantity name: Tmax (min)
Record the value in min, omitting the unit from your answer.

Request: Report Tmax for CC(C(=O)O)c1ccc(CC2CCCC2=O)cc1 (stereo not shown) [loxoprofen]
Result: 12

* * *

# Assay text: Phase I clinical trial, pharmacokinetics of loxoprofen sodium eye drops
# Recorded conditions: human, in vivo, topical or ocular, 0.2 mg, multiple administration (four times a day)
Quantity name: Cmax (ng/mL)
Record the value in ng/mL, omitting the unit from your answer.

Request: Report Cmax for CC(C(=O)O)c1ccc(CC2CCCC2=O)cc1 (stereo not shown) [loxoprofen]
Result: 9.46

* * *

# Assay text: Phase I clinical trial, pharmacokinetics of loxoprofen sodium eye drops
# Recorded conditions: human, in vivo, topical or ocular, 0.1 mg, single administration
Quantity name: Cmax (ng/mL)
Record the value in ng/mL, omitting the unit from your answer.

Request: Report Cmax for CC(C(=O)O)c1ccc(CC2CCCC2=O)cc1 (stereo not shown)
Result: 3.69

* * *

# Assay text: Phase I clinical trial, pharmacokinetics of loxoprofen sodium eye drops
# Recorded conditions: human, in vivo, topical or ocular, 0.2 mg, single administration, 0.2 mg, read-out: Average AUC0-t
Quantity name: AUC(0-t) (ng·h/mL)
Record the value in ng·h/mL, omitting the unit from your answer.

Request: Report AUC(0-t) for CC(C(=O)O)c1ccc(CC2CCCC2=O)cc1 (stereo not shown)
Result: 6.82
